Collected competition (percent) values appear next to each entry.
# subject-of-test: T1, Biotinylated CD96 antigen (human, UniProt P40200-2 22-503, limits assumed, biotinylated)
# T1 sequence (looked up): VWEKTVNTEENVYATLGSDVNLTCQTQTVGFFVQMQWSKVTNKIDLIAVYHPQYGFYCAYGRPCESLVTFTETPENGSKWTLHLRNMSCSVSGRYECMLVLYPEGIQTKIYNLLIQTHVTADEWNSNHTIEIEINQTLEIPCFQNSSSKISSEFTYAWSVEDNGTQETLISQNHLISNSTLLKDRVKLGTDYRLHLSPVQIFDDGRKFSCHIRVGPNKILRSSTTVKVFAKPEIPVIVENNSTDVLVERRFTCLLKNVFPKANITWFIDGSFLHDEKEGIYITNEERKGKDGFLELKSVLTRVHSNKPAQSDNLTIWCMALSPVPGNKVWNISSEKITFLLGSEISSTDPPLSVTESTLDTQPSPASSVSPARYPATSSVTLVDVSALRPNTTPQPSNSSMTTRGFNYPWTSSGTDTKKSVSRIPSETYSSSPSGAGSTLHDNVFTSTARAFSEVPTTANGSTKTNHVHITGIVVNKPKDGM
# protocol-text: competition ELISA, antibody B premixed with biotinylated CD96; competitor (coated antibody A): h1719-014
Record the value in %, omitting the unit from your answer.

binder	competition (percent) / %
ch1720 (antibody, human IgG4 S228P, kappa, V domains shown, also called chimeric antibody corresponding to m1720) VH: EFQLQQSGPELVKPGASVKISCKASAYSLTDYNMNWVKQSNGKSLEWIGVINPSYGISSYNQKFKGKATLTVDQSSSTAYMHLNSLTSEDSAVYYCARQLRLPGYFDVWGTGTTVTVSS VL: DIKMTQSPSSKNASLGERVTITCKASQDINSYLNWFQQKPGKSPKTLIYRASRLVDGVPSRFSGSGSGQDYSLTISSLEYEDMGIYYCLKYDEFPYTFGGGTKLEIKR	92.3
h1718-012 (antibody, V domains shown, Only variable regions are tied to this name) VH: EVQLVQSGAEVKKPGASVKVSCKASGYTITDYNMNWVRQAPGQRLEWIGVINPSYGITDYNQNFKDRVTITVDTSASTAYMELSSLRSEDTAVYYCAIQLRLPGYFDVWGQGTTVTVSS VL: DIQMTQSPSSLSASVGDRVTITCKASQDINQYLNWFQQKPGKAPKTLIYRANRLVDGVPSRFSGSGSGQDYTLTISSLQPEDFATYYCLKYDEFPYTFGGGTKVEIK	94.8

Here's the next entry for you.
q: Entry h1722-010 (antibody, V domains shown, Only variable regions are tied to this name; also called M722-010) VH: EVQLVQSGAEVKKPGSSVKVSCKASGGTFSDYWMHWVRQAPGQGLEWIGMLHPNSGTTSFNEKFKIRVTITADKSTSTAYMELSSLRSEDTAVYYCASDYSGPFAYWGQGTLVTVSS VL: DIQLTQSPSSLSASVGDRVTITCSASSSVNYIHWYQQKPGKAPKRWIFDTSKLASGVPSRFSGSGSGTDYTLTISSLQPEDFATYYCQQWRSNPLTFGQGTKLEIK : reported competition (percent) = ?
a: 8.5
